target: TNFα / TNFα receptor (TNFα R1/Fc) (Homo sapiens); construct: purchased R&D Systems; assay: Inhibition of binding of TNFα to the TNFα receptor (plate ELISA competition); details: Table 2; read-out: Activity (IC50, inhibition of TNFα binding to TNFα R1/Fc)
Sequence (P01375 77-233 limits assumed, species assumed): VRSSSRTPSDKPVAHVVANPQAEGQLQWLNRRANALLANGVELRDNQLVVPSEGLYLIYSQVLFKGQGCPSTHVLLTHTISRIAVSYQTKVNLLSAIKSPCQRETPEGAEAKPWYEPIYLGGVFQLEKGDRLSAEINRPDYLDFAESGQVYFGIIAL
Numbered stars: 1 amine (or outer) side, 2 acyl side, 3 side chain; on linkers, the order of the positions; unused ones are H or OH. Bridge positions count the residues as written; N and C are the ends. Square brackets hold non-standard residues; d marks the D form. Peptide text beside a SMILES is read from it. Tartaroyl(2R,3R-(OAc)2) = CC(=O)O[C@@H](C(=O)[*:1])[C@@H](OC(C)=O)C(=O)[*:2]; Phe(4-CF3) = N[C@@H](Cc1ccc(C(F)(F)F)cc1)C(=O)O; dPhe(3-CF3) = N[C@H](Cc1cccc(C(F)(F)F)c1)C(=O)O; Phe(4-COOH) = N[C@@H](Cc1ccc(C(=O)O)cc1)C(=O)O; Bip = N[C@@H](Cc1ccc(-c2ccccc2)cc1)C(=O)O; dBip = N[C@H](Cc1ccc(-c2ccccc2)cc1)C(=O)O; dPhe(4-NH2) = Nc1ccc(C[C@@H](N)C(=O)O)cc1; Phe(4-NH2) = Nc1ccc(C[C@H](N)C(=O)O)cc1; dPhe(4-F) = N[C@H](Cc1ccc(F)cc1)C(=O)O; d(hPhe) = N[C@H](CCc1ccccc1)C(=O)O; dNMeF = CN[C@H](Cc1ccccc1)C(=O)O; hPhe = N[C@@H](CCc1ccccc1)C(=O)O; 2Thi = N[C@@H](Cc1cccs1)C(=O)O; Cha = N[C@@H](CC1CCCCC1)C(=O)O; d2Thi = N[C@H](Cc1cccs1)C(=O)O; Suc = O=C(CCC(=O)[*:2])[*:1]; βAla = NCCC(=O)O
List of IC50 values.
METRIC: IC50

>>> result("O=C1CCNC(=O)c2ccc(cc2)C[C@@H](C(=O)O)NC(=O)[C@@H](Cc2ccccc2)NC(=O)[C@@H](Cc2ccc(-c3ccccc3)cc2)NC(=O)[C@@H](CCc2ccccc2)N1 [Compound 469] ([βAla][d(hPhe)][dBip][dF][Phe(4-COOH)]-OH; lactam N-5)")
"> 100 µM"
>>> result("O=C1CCC(=O)N[C@H](Cc2cccs2)C(=O)N[C@@H](Cc2ccc(-c3ccccc3)cc2)C(=O)N[C@H](CCc2ccccc2)C(=O)N[C@H](C(=O)O)Cc2ccc(cn2)N1")
"< 10 µM"
>>> result("COC(=O)[C@H](CC(=O)O)NC(=O)[C@@H]1Cc2ccc(cc2)OCC(=O)N[C@@H](Cc2cccs2)C(=O)N[C@@H](Cc2ccc(-c3ccccc3)cc2)C(=O)N[C@@H](Cc2ccccc2)C(=O)N1")
"< 10 µM"
>>> result("O=C1CCC(=O)N[C@H](Cc2cccc(C(F)(F)F)c2)C(=O)N[C@@H](Cc2ccc(C(F)(F)F)cc2)C(=O)N[C@H](Cc2ccccc2)C(=O)N[C@H](C(=O)O)Cc2ccc(cc2)N1 [Compound 166] ([dPhe(3-CF3)][Phe(4-CF3)][dF][Phe(4-NH2)]-OH; linker N-4 via Suc)")
"30 to 100 µM"
>>> result("CC(=O)O[C@H]1C(=O)Nc2ccc(cc2)C[C@H](C(=O)N[C@@H](Cc2ccccc2)C(=O)O)NC(=O)[C@H](CCc2ccccc2)NC(=O)[C@@H](Cc2ccc(-c3ccccc3)cc2)NC(=O)[C@H](Cc2cccs2)NC(=O)[C@@H]1OC(C)=O [Compound 411] ([2Thi][dBip][hPhe][dPhe(4-NH2)]F-OH; linker N-4 via Tartaroyl(2R,3R-(OAc)2))")
"> 100 µM"
>>> result("O=C1CCC(=O)N[C@H](Cc2cccs2)C(=O)N[C@H](c2ccc(Br)cc2)CC(=O)N[C@H](Cc2ccccc2)C(=O)N[C@H](C(=O)O)Cc2ccc(cc2)N1")
"> 100 µM"
>>> result("O=C1CCC(=O)N[C@H](Cc2ccc(F)cc2)C(=O)N[C@@H](Cc2ccc(C(F)(F)F)cc2)C(=O)N[C@H](Cc2ccccc2)C(=O)N[C@H](C(=O)O)Cc2ccc(cc2)N1 [Compound 134] ([dPhe(4-F)][Phe(4-CF3)][dF][Phe(4-NH2)]-OH; linker N-4 via Suc)")
"> 100 µM"
>>> result("COc1cccc(C[C@H]2NC(=O)[C@H](O)[C@@H](O)C(=O)Nc3ccc(cc3)C[C@@H](C(=O)O)NC(=O)[C@@H](Cc3ccccc3)NC(=O)[C@H](Cc3ccc(-c4ccccc4)cc3)NC2=O)c1")
"10 to 30 µM"
>>> result("COC(=O)[C@@H](CC(=O)O)NC(=O)[C@@H]1Cc2ccc(cc2)NC(=O)CCC(=O)N[C@H](CCc2ccccc2)C(=O)N[C@@H](Cc2ccc(-c3ccccc3)cc2)C(=O)N[C@H](Cc2ccccc2)C(=O)N1 [Compound 351] ([d(hPhe)][Bip][dF][Phe(4-NH2)][dD]-OMe; linker N-4 via Suc)")
"10 to 30 µM"
>>> result("COc1ccc(C[C@H]2NC(=O)[C@H](Cc3ccc(-c4ccccc4)cc3)NC(=O)[C@@H](Cc3cccs3)NC(=O)COc3ccc(cc3)C[C@@H](C(=O)O)NC2=O)cc1")
"> 100 µM"
>>> result("O=C1COc2ccc(cc2)C[C@@H](C(=O)O)NC(=O)[C@H](Cc2ccc(Cl)cc2Cl)NC(=O)[C@@H](Cc2ccc(-c3ccccc3)cc2)NC(=O)[C@H](Cc2ccncc2)N1")
"< 10 µM"
>>> result("O=C1CCC(=O)N[C@H](Cc2cccs2)C(=O)N[C@@H](CC2CCCCC2)C(=O)N[C@H](Cc2ccccc2)C(=O)N[C@H](C(=O)O)Cc2ccc(cc2)N1 [Compound 84] ([d2Thi][Cha][dF][Phe(4-NH2)]-OH; linker N-4 via Suc)")
"> 100 µM"
>>> result("CC(C)(C)c1ccc(C[C@@H]2NC(=O)COc3ccc(cc3)C[C@@H](C(=O)O)NC(=O)[C@H](CCc3ccccc3)NC(=O)[C@@H](Cc3ccc(-c4ccccc4)cc3)NC2=O)cc1")
"10 to 30 µM"
>>> result("O=C(O)C[C@@H]1Cc2ccc(cc2)NC(=O)[C@H](O)[C@@H](O)C(=O)N[C@H](Cc2cccs2)C(=O)N[C@@H](Cc2ccc(-c3ccccc3)cc2)C(=O)N[C@H](Cc2ccccc2)C(=O)N1")
"10 to 30 µM"
>>> result("CN1C(=O)[C@H](Cc2ccc(-c3ccccc3)cc2)NC(=O)[C@@H](Cc2cccs2)NC(=O)CCC(=O)Nc2ccc(cc2)C[C@@H](C(=O)O)NC(=O)[C@H]1Cc1ccccc1 [Compound 57] ([d2Thi][Bip][dNMeF][Phe(4-NH2)]-OH; linker N-4 via Suc)")
"> 100 µM"
>>> result("O=C1COc2ccc(cc2)C[C@@H](C(=O)O)NC(=O)[C@@H](CCc2ccccc2)NC(=O)[C@H](Cc2ccc([N+](=O)[O-])cc2)NC(=O)[C@@H](Cc2cccs2)N1")
"> 100 µM"
